System: UO-31
Protocol text: NCI tumour cell line growth inhibition, 48 h
Active and inactive are the calls of the source. Rule as the data show it: active = GI50 up to about 1.1 µM and inactive = higher.
Result category, one only: active, inactive

# example entries with known answers
[[record]]
structure = "COc1cc(C)c2c(c1)CN1CN2Cc2cc(OC)cc(C)c21"
target_or_system = "UO-31"
group = "inactive"

[[record]]
structure = "Nc1cc2nc(-c3ccccc3)cn2cn1"
target_or_system = "UO-31"
group = "inactive"

[[record]]
structure = "CC(C)c1cc2c(O)c(c1)Cc1cc(C(C)C)cc(c1O)Cc1cc(C(C)C)cc(c1O)Cc1cc(C(C)C)cc(c1O)Cc1cc(C(C)C)cc(c1O)Cc1cc(C(C)C)cc(c1O)C2"
target_or_system = "UO-31"
group = "inactive"

[[record]]
structure = "OCCOc1ccc(-c2cc(-c3ccccn3)nc(-c3ccccn3)c2)cc1"
target_or_system = "UO-31"
group = "active"

[[record]]
structure = "O=C1CCc2cc3c(cc21)CC1(Cc2cc4c(cc2C1)CCCC4)C3"
target_or_system = "UO-31"
group = "inactive"


# ---- query compound ----
Query: Name the outcome recorded for "O=C1C(=O)N(c2ccc(Cl)c(Cl)c2)C(=O)C(=O)C1c1nc2ccccc2s1" in the assay.
Result: inactive

====

# GI50 per record follows
Test system: M14
Protocol text: NCI tumour cell line growth inhibition, 48 h
Activity calls are given as the source filed them. Rule as the data show it: active = GI50 up to about 1.1 µM and inactive = higher.

[[record]]
compound = "CN(/N=N/c1[nH]cnc1C(N)=O)C1CCCCC1"
test_value = "72.9 µM (inactive)"

[[record]]
compound = "C/C(=N\\NC(=O)c1ccccc1O)c1cccc(/C(C)=N/NC(=O)c2ccccc2O)n1.[Cl-].[Cl-].[Zn+2]"
test_value = "7.96 µM (inactive)"


Please examine the following record next.
GI50 in this record for COC(C)(C)[C@@H](O)[C@H]1C[C@H](C)[C@@]2(CC[C@]3(C)[C@@H]2CC[C@@H]2[C@@]4(C)CC[C@@H](OC(C)=O)C(C)(C)[C@@H]4C[C@@H](OC4OC(COC(C)=O)C(O)C(O)C4O)[C@]23C)O1 (some centres undefined) : 4.8 µM (inactive)

====

Tested on: HL-60
Protocol text: NCI tumour cell line growth inhibition, 48 h
Activity calls are given as the source filed them. Rule as the data show it: active = GI50 up to about 1.1 µM and inactive = higher.
Pick from 1 (yes) (active), 0 (no) (inactive) when you respond.

[[record]]
molecule = "C=CCn1c(-c2ccc([N+](=O)[O-])cc2)cs/c1=N\\C(P(=O)(O)O)P(=O)(O)O"
group = "1 (yes)"

[[record]]
molecule = "CC1(C)CC[C@]2(C(=O)O)CC[C@]3(C)C(=CC[C@@H]4[C@@]5(C)CC[C@H](OC6OC(CO)C(O)C(O)C6OC6OC(CO)C(O)C(O)C6O)C(C)(C)[C@@H]5CC[C@]43C)[C@@H]2C1 (some centres undefined)"
group = "0 (no)"


Query: Recorded call for "CN1CCN(CCCCN2c3ccccc3Sc3cc(N=[N+]=[N-])ccc32)CC1" ?
Result: 0 (no)

Query: Could you check what this test reported for "CCCCCCN(CCCCCC)C(=O)Cc1c2n(c3ccccc13)Cc1ccccc1-2" ?
Result: 0 (no)

====

Test system: HOP-92
Protocol text: NCI tumour cell line growth inhibition, 48 h
Active and inactive are the calls of the source. Cut-off read from the data, not from the text of the source: active = GI50 up to about 1.1 µM and inactive = higher.
Can you answer with just one of these options? active, inactive

Recorded results for 6 molecules are shown here.
[[record]]
structure = "C/C(=N\\NS(=O)(=O)c1ccc(C)cc1)c1c(O)cc(C)oc1=O"
group = "inactive"

[[record]]
structure = "Nc1cc(O)c2c(c1O)C(=O)C=CC2=O"
group = "inactive"

[[record]]
structure = "C=CCn1c(-c2ccc([N+](=O)[O-])cc2)cs/c1=N\\C(P(=O)(O)O)P(=O)(O)O"
group = "inactive"

[[record]]
structure = "CCOC(=O)c1cnc2oc3ccc(O)cc3c2c1C"
group = "inactive"

[[record]]
structure = "COCN1C(=O)[C@@H]2CCCN2C(=O)c2ccc([N+](=O)[O-])cc21"
group = "inactive"

[[record]]
structure = "COc1cc(-c2nc(SC)nc3c2CCc2ccccc2-3)cc(OC)c1OC"
group = "inactive"


Kindly consider the entry below.
Query: # lookup: test call for "Cc1cc2c(cc1C)[n+]([O-])c(C(F)(F)F)c(C(=O)c1ccccc1)[n+]2[O-]"
Result: active

Provenance of the data: ChEMBL document CHEMBL1201862
